system: Danio rerio larvae (5 dpf); test: difference in activity during first hour vs DMSO (percentage points); higher = more activity than DMSO; settings: 10 µM; exposure time 6 h
Where a name gives a salt, the structure may show the parent alone.
Field: difference in activity during first hour. Provide a value for each of the molecules that follow.
Answers are plain numbers.

These recorded examples may help you get a feel for the data.
{"molecule": "N#Cc1ccc2[nH]cc(CCCCN3CCN(c4ccc5oc(C(N)=O)cc5c4)CC3)c2c1 [Vilazodone (hydrochloride)]", "observed value": -16.6}
{"molecule": "O=C1[C@@H]2[C@H]3CC[C@H](C3)[C@@H]2C(=O)N1C[C@@H]1CCCC[C@H]1CN1CCN(c2nsc3ccccc23)CC1", "observed value": -1.19}
{"molecule": "CCOc1nc2cccc(C(=O)OC(C)OC(=O)OC3CCCCC3)c2n1Cc1ccc(-c2ccccc2-c2nn[nH]n2)cc1 (stereo not drawn)", "observed value": -2.86}
{"molecule": "CCOC(=O)C1=C(COCCN)NC(C)=C(C(=O)OC)C1c1ccccc1Cl (stereo not drawn)", "observed value": 1.69}
{"molecule": "CN(C)c1nc(N(C)C)nc(N(C)C)n1", "observed value": -6.9}

Here are 2 molecules. What values of difference in activity during first hour were reported for them?
1. CC(=O)c1ccc(S(=O)(=O)NC(=O)NC2CCCCC2)cc1 [Acetohexamide]
2. O=c1[nH]c(=O)n([C@H]2C[C@H](O)[C@@H](CO)O2)cc1C(F)(F)F

Return:
1: -0.443; 2: 5.45

Enquiry: Tell me difference in activity during first hour of CCOc1ccc(Cc2cc([C@]34OC[C@](CO)(O3)[C@@H](O)[C@H](O)[C@H]4O)ccc2Cl)cc1 when tested on Danio rerio larvae (5 dpf).
Return: 3.38

###

Field: difference in excitability. Provide a value for each of the compounds that follow.
system: Danio rerio larvae (5 dpf); test: difference in excitability vs DMSO (percentage points); higher = more excitable than DMSO; conditions: 10 µM; exposure time 6 h
Give bare numbers.

These recorded examples may help you get a feel for the data.
{"compound": "C#Cc1cccc(Nc2ncnc3cc(OCCOC)c(OCCOC)cc23)c1", "value type": "difference in excitability", "observed value": 4.3}
{"compound": "Cc1cnc(NC(=O)C2=C(O)c3ccccc3S(=O)(=O)N2C)s1", "value type": "difference in excitability", "observed value": 5.53}
{"compound": "CC(=O)O[C@H]1Cc2ccccc2N(C(N)=O)c2ccccc21 [Eslicarbazepine Acetate]", "value type": "difference in excitability", "observed value": -1.41}
{"compound": "CC(=O)N(CC(O)CO)c1c(I)c(C(=O)NCC(O)CO)c(I)c(C(=O)NCC(O)CO)c1I (configuration not stated) [Iohexol]", "value type": "difference in excitability", "observed value": 1.55}
{"compound": "CN(C)CCC(c1ccc(Cl)cc1)c1ccccn1 (configuration not stated) [Chlorpheniramine (maleate)]", "value type": "difference in excitability", "observed value": 1.12}

Here are 2 compounds. What values of difference in excitability were reported for them?
1. CC[C@H]1OC(=O)[C@H](C)[C@@H](O[C@H]2C[C@@](C)(OC)[C@@H](O)[C@H](C)O2)[C@H](C)[C@@H](O[C@@H]2O[C@H](C)C[C@H](N(C)C)[C@H]2O)[C@](C)(O)C[C@@H](C)CN(C)[C@H](C)[C@@H](O)[C@]1(C)O
2. C[C@@H](O)[C@H]1C(=O)N2C(C(=O)O)=C(S[C@@H]3CN[C@H](CNS(N)(=O)=O)C3)[C@H](C)[C@H]12 [Doripenem (hydrate)]

Return:
1: 19.6; 2: 0.847
